src = patent US7405317B2

Assay: Solubility of KS119 in co-solvent system
Type: physicochemical
Conditions: polyethylene glycol (PEG) and ethanol co-solvent system, organic solvent or mixture, read-out: solubility in co-solvent system like polyethylene glycol (PEG) and ethanol

{"columns": ["compound", "solubility"],
 "data": [
  ["CC(OC(=O)N(N(CCCl)S(C)(=O)=O)S(C)(=O)=O)c1ccc([N+](=O)[O-])cc1 (stereo not shown) [KS119, reference compound]", "< 5000 µg/mL"]
]}
